meta.source: patent US20160289285A1

- subject_of_test: T1, human serum albumin (human, UniProt P02768 25-609)
- T1 construct: For SEC-MALS purified from CSL Behring 20% solution; also called HSA; SA (human)
- assay_procedure: SPR (ProteOn)
// values below are reported Kd

{"binder": "Protein #47 (designed binder) MRGSHHHHHHGSDLDKKLLEAARAGQDDEVRILMANGADVNAKDYFSHTPLHLAARNGHLKIVEVLLKAGADVNAKDFAGKTPLHLAANDGHLEIVEVLLKHGADVNAQDIFGKTPADIAADAGHEDIAEVLQKAA", "units_text": "nM", "Kd": 27}
{"binder": "Protein #46 (designed binder) MRGSHHHHHHGSDLGKKLLEAARAGQDDEVRILLAAGADVNAKDYFSHTPLHLAARNGHLKIVEVLLKAGADVNAKDFAGKTPLHLAANDGHLEIVEVLLKHGADVNAQDIFGKTPADIAADAGHEDIAEVLQKAA", "units_text": "nM", "Kd": 22}
{"binder": "Protein #44 (designed binder) MRGSHHHHHHGSDLDKKLLEAARAGQDDEVRILMANGADVNAKDYFSHTPLHLAARNGHLEIVEVLLKAGADVNAKDFAGKTPLHLAANDGHLEIVEVLLKHGADVNAQDIFGKTPADIAADAGHEDIAEVLQKAA", "units_text": "nM", "Kd": 26}
{"binder": "Protein #45 (designed binder) MRGSHHHHHHGSDLGKKLLEAARAGQDDEVRILMANGADVNAKDYFSHTPLHLAARNGHLEIVEVLLKAGADVNAKDFAGKTPLHLAANDGHLEIVEVLLKHGADVNAQDIFGKTPADIAADAGHEDIAEVLQKAA", "units_text": "nM", "Kd": 13}
{"binder": "Protein #50 (designed binder) MRGSHHHHHHGSDLGKKLLEAARAGQDDEVRELLKAGADVNAKDYFSHTPLHLAARNGHLKIVEVLLKAGADVNAKDFAGKTPLHLAANEGHLEIVEVLLKAGADVNAQDIFGKTPADIAADAGHEDIAEVLQKAA", "units_text": "nM", "Kd": 27}
